biological target: DRB1*1201 (Homo sapiens, UniProt P01903+P01911, A100R/A169T/D57E/D86V/F55L/H45Y/K41T/L162R/M171V/P40S/Q125H/Q178H/Q39Y/Q99D/R42G/S66L/T262R/V114A/V67L/W38E/Y59H/Y61H/Y89S); assay: biochemical
Parameter: pIC50
Answer as the number alone; pIC50 is minus log10 of concentration in mol/L.

The following molecules have reported results that may help.
Molecule	pIC50
CC[C@H](C)[C@H](NC(=O)[C@@H]1CCCN1C(=O)[C@H](Cc1c[nH]cn1)NC(=O)[C@@H](NC(=O)[C@@H]1CCCN1C(=O)[C@@H](NC(=O)[C@H](CO)NC(=O)[C@@H]1CCCN1C(=O)[C@H](CC(C)C)NC(=O)CNC(=O)[C@@H](NC(=O)[C@H](C)NC(=O)[C@H](CCC(=O)O)NC(=O)[C@H](C)N)C(C)C)[C@@H](C)CC)C(C)C)C(=O)NCC(=O)O [Peptide 68.0101]	6.15
CC(C)C[C@H](NC(=O)[C@H](CO)NC(=O)[C@H](CC(C)C)NC(=O)[C@H](CO)NC(=O)[C@H](C)NC(=O)[C@H](C)NC(=O)[C@H](CCCNC(=N)N)NC(=O)[C@H](C)NC(=O)[C@H](CC(C)C)NC(=O)[C@H](CC(C)C)NC(=O)[C@H](CC(C)C)NC(=O)[C@@H]1CCCN1C(=O)[C@H](C)N)C(=O)NCC(=O)N[C@@H](Cc1ccccc1)C(=O)O [Peptide 68.0020]	6.65

Kindly consider the entry below.
Req: Annotate the molecule CC[C@H](C)[C@H](NC(=O)[C@H](CO)NC(=O)[C@H](CO)NC(=O)[C@H](CC(=O)O)NC(=O)[C@H](C)NC(=O)[C@H](CC(N)=O)NC(=O)[C@@H](NC(=O)[C@H](Cc1ccc(O)cc1)NC(=O)[C@H](C)NC(=O)[C@@H](N)C(C)C)[C@@H](C)CC)C(=O)N[C@@H](CCC(=O)O)C(=O)NCC(=O)N[C@@H](CC(N)=O)C(=O)N[C@@H](Cc1ccc(O)cc1)C(=O)N[C@H](C(=O)O)[C@@H](C)O [Peptide 68.0177] with its measured pIC50.
Resp: 5.08
